# System: M14
# METHOD: NCI tumour cell line growth inhibition, 48 h
Calls of active or inactive are those of the source. Rule as the data show it: active = GI50 up to about 1.1 µM and inactive = higher.
Each record here notes measured GI50.
QUANTITY NAME: GI50

1) CN(C)C(=S)SCC(=O)Nc1ccccc1 | > 100 µM (inactive)
2) COc1cccc(C(=O)N[C@@H]2[C@H](O)[C@@H](CO)O[C@H]2n2cnc3c(N)ncnc32)c1 | > 100 µM (inactive)
3) CCSSCS(C)(=O)=O | 20.4 µM (inactive)
4) CCCCCCCCCCCCOC1C(COCCN2CCCC2)OC2OC(C)(C)OC21 (stereo not given) | 1.85 µM (inactive)
5) Oc1ccccc1/C=N/N1C(=S)N(c2ccccc2)C(=N\c2ccccc2)/C1=N/c1ccccc1 | 15.1 µM (inactive)
6) Cn1ncc2c(c1=O)Nc1ccccc1S2(=O)=O | > 100 µM (inactive)
7) CC(C)C1CN1CC(O)Cn1ccnc1[N+](=O)[O-] (stereo not given) | > 100 µM (inactive)
8) CCNC(=S)NNC(=O)CSc1nc2ccc(I)cc2c(=O)n1Cc1ccccc1 | 38.4 µM (inactive)
9) Cc1c(S(=O)(=O)N/C(=N\O)Nc2ccc(Cl)cc2)sc2ccc(Cl)cc12 | 16.9 µM (inactive)
10) N#CC(C#N)/N=N/c1ccc(-c2nc3ccccc3o2)cc1 | 15.2 µM (inactive)
11) O=C1NCC(NC(=O)C(F)(F)F)c2c(Br)sc(Br)c21 (stereo not given) | > 100 µM (inactive)
12) O=[N+]([O-])C(=C1Nc2ccccc2N1)/C(Cl)=C(/Cl)N1CCOCC1 | 88.5 µM (inactive)
13) CC1=NN(c2cccc(Cl)c2)C2(C1)SCC(=O)N2c1nc2ccccc2s1 (stereo not given) | 26.7 µM (inactive)
14) Cc1cc(C)c(N)c(C)c1N | > 100 µM (inactive)
15) CN(C)c1ccc(N2C(=S)SC(=N\c3ccccc3)/C2=N/c2ccccc2)cc1 | > 100 µM (inactive)
16) CC(=O)CC1(O)C(=O)c2c(Br)sc(Br)c2C1=O | 17.8 µM (inactive)
17) CN(C)CCn1c(=O)c2ccc3c4c(nn3CCN(C)C)c3cc([N+](=O)[O-])ccc3n(c1=O)c24 | 0.222 µM (active)
18) O=[N+]([O-])c1ccc(/N=N\c2c(O)ccc3ccccc23)c([N+](=O)[O-])c1 | > 100 µM (inactive)
19) C=CCOc1ccc2c(C)cc(=O)oc2c1C | 46.5 µM (inactive)
20) COc1ccc2c(c1)c1cc(OC)ccc1n2CCCCOc1ccc(-c2c3ccccc3c(-c3ccc(OCCCCn4c5ccc(OC)cc5c5cc(OC)ccc54)cc3)c3ccccc23)cc1 | > 100 µM (inactive)
21) CC12Nc3ccccc3C1=C(c1ccccc1)CC1C(=O)OC(=O)C12 (stereo not given) | > 100 µM (inactive)
22) O=C(/C=C\Nc1ccccc1O)C(F)(F)F | 40.3 µM (inactive)
23) CC(C)C1SCc2nc3ccccc3n21 (stereo not given) | 33.4 µM (inactive)
24) COC(=O)/C(=N\NC(N)=O)C(C(=O)C=C(C)C)C(=O)C(=O)Nc1ccc(Cl)c(Cl)c1 (stereo not given) | > 100 µM (inactive)
25) C=C1C(=O)OC2C1CC(OC(C)=O)/C(C)=C/CCC1(C)OC21 (stereo not given) | > 100 µM (inactive)
26) CC(C)c1cccc(C(C)C)c1NC(=O)C(=O)CC(=O)CC(c1ccccc1)c1c(O)oc2ccccc2c1=O (stereo not given) | > 100 µM (inactive)
27) CCC1(c2ccccc2)C(=O)N=C(c2ccccc2)N1CCc1ccccc1 (stereo not given) | > 100 µM (inactive)
28) COc1ccc(NC(=O)COC(=O)c2cccc3c(=O)c4ccccc4[nH]c23)cc1 | 29.6 µM (inactive)
29) C[C@]12CCC(=O)C=C1CC[C@@H]1[C@@H]2CC[C@]2(C)C(=O)/C(=C\c3ccccc3)C[C@@H]12 | 22.4 µM (inactive)
30) C/C(=C\[C@H]1C[C@@H]([C@@H]2CC[C@]34C[C@]23C=C[C@@H]2[C@@]3(C)CC=C5C[C@@H](c6ccccc6)OC[C@]5(C)[C@@H]3C[C@@H](O)[C@]24C)C(=O)O1)CO | 2.77 µM (inactive)
31) COC(=O)c1cc(C)ccc1CC(Cc1ccccc1C)C(=O)OC (stereo not given) | 29.6 µM (inactive)
32) CC(=O)N1C/C(=C\c2ccc(N(C)C)cc2)C(=O)/C(=C/c2ccc(N(C)C)cc2)C1 | 40.1 µM (inactive)
33) COc1cc(C(=O)/C=C/c2ccc(OCCSCCCCCCCCCCSCCOc3ccc(/C=C/C(=O)c4cc(OC)c(OC)c(OC)c4)cc3)cc2)cc(OC)c1OC | > 100 µM (inactive)
34) CCCC[N+](CCCC)(CCCC)CCCC.O=S(=O)([O-])ON=C1c2ccccc2-c2ccccc21 | > 100 µM (inactive)
35) CC(C)=C=CP(=O)(O)c1ccccc1 | > 100 µM (inactive)
36) O=P1(c2ccccc2)C(c2ccccc2)=CC=C1c1ccccc1 | 18.4 µM (inactive)
37) CC(C)(C)OC(=O)N1CCCC1C(=O)NCCNc1ccc(NCCNC(=O)C2CCCN2C(=O)OC(C)(C)C)c2c1C(=O)c1ccccc1C2=O (stereo not given) | 15.8 µM (inactive)
38) COc1ccc(OC)c(N2C(=O)CSC2c2cc(OC)c(OC)c(OC)c2)c1 (stereo not given) | > 100 µM (inactive)
39) COc1ccc(C2=C(Cl)c3cc(OC)c(OC)cc3C2OC)cc1OC (stereo not given) | > 100 µM (inactive)
40) O=NN(CCCl)C(=O)N[C@H]1CCCC[C@@H]1Cl | > 100 µM (inactive)
